Tested on: HOP-92 NSCLC
Assay: NCI tumour cell line growth inhibition, 48 h
Observable: GI50

>>> value_measured("COC1OCC(OS(=O)(=O)c2ccc(C)cc2)C(OC(=O)c2ccccc2)C1OC(=O)c1ccccc1 (configuration not stated)")
"2.48 µM"
>>> value_measured("CCOCCc1c(O)nc(SC)[nH]c1=O")
"> 100 µM"
>>> value_measured("CN(CCCCCl)P(=O)(OCc1ccc([N+](=O)[O-])o1)C(F)(F)c1ccc(CC(=O)N[C@@H](CC(=O)O)C(=O)N[C@@H](Cc2ccc(C(F)(F)P(=O)(OCc3ccc([N+](=O)[O-])o3)N(C)CCCCCl)cc2)C(N)=O)cc1 (some centres not stated)")
"22.5 µM"
>>> value_measured("CCCN(CCC)c1ccc(C=O)cc1")
"13 µM"
>>> value_measured("C=C1C(=O)O[C@H]2[C@H]1CC/C(COC(=O)/C=C\\C(=O)NCc1ccc(Cn3c(=O)sn(-c4ccc(OC)cc4)c3=O)cc1)=C\\CC[C@@]1(C)O[C@@H]21")
"0.587 µM"
>>> value_measured("CCOC(=O)c1c[nH]c2c(OCc3ccccc3)c3ccccc3c(O)c2c1=O")
"27 µM"
>>> value_measured("CCCCCCCCCCCCOC1C(CNC(=O)C2OC3OC(C)(C)OC3C2NC(=O)CN2CCN(c3ccccn3)CC2)OC2OC(C)(C)OC21 (configuration not stated)")
"1.7 µM"
>>> value_measured("CCc1ccc(CCC(=O)Nc2ncc(Cc3cc(Cl)ccc3Cl)s2)o1")
"2.08 µM"
>>> value_measured("O=C(N/N=C/c1coc2ccc(Cl)cc2c1=O)c1ccncc1")
"93.8 µM"
>>> value_measured("CC1(C)Cc2cccc(OCC(O)CN3CCN(c4ccc(F)cc4)CC3)c2O1 (configuration not stated)")
"8.15 µM"
>>> value_measured("CN(C)c1ccc(/C=C(\\C#N)c2cc3ccccc3n2C)cc1")
"0.556 µM"
>>> value_measured("Cn1cc(C2=C(c3c4n(c5ccccc35)CC(CN)C4)C(=O)NC2=O)c2ccccc21 (configuration not stated)")
"4.32 µM"
